- Tested on: Plasmodium berghei
- TEST_SUMMARY: Luciferase/luciferin-expressing antifolate-resistant parasites were used to infect a culture of HepG2 cells that were pre-incubated with compounds. Infected hepatocytes emit light due to the luciferase reaction. Assay results are presented as the percent inhibition of light emission compared to control. […]
- Assay type: functional
- APPLIED_CONDITIONS: sporozoite, read-out: LUCIFERASE INFECTION ASSAY - IC90
OBSERVED_PROPERTY: IC90

- COMPOUND: "CC(NC(=O)c1cn(C)c2ccccc12)c1ccccn1 (stereo not given)"
  RESULT: "> 2 µM"
- COMPOUND: "O=C(Nc1cccc(F)c1)Nc1ccc2nc(-c3cccs3)nn2c1"
  RESULT: "4.34 µM"
- COMPOUND: "Cc1cc(C(=O)C(C)OC(=O)c2ccc(S(=O)(=O)NCc3ccco3)cc2)c(C)n1-c1ccc(Cl)cc1 (stereo not given)"
  RESULT: "> 10 µM"
- COMPOUND: "CCOCCCn1c(SCC(=O)Nc2scc(C3CC3)c2C(=O)OCC)nnc1-c1ccc(Cl)cc1"
  RESULT: "> 10 µM"
- COMPOUND: "N#CC(C(=O)c1cc(S(=O)(=O)N2CCc3ccccc3C2)ccc1Cl)c1ccccn1 (stereo not given)"
  RESULT: "3.76 µM"
- COMPOUND: "COc1ccccc1N(C(=O)c1cccc(C#N)c1)c1nc2ccccc2s1"
  RESULT: "> 10 µM"
- COMPOUND: "OC(c1ccc(Cl)cc1)c1nnc(Nc2cc(C(F)(F)F)ccc2F)s1 (stereo not given)"
  RESULT: "> 10 µM"
- COMPOUND: "CC(C)c1csc(NC(=O)c2cnn(-c3ccccc3F)c2C(F)(F)F)n1"
  RESULT: "2.32 µM"
- COMPOUND: "N#CCCN(Cc1ccco1)C(=O)CSc1nc2ccccc2c(=O)n1-c1cccc(Cl)c1"
  RESULT: "> 10 µM"
- COMPOUND: "NC(Cc1ccc(F)cc1)c1csc(Nc2ncccn2)n1 (stereo not given)"
  RESULT: "4.09 µM"
- COMPOUND: "CSc1sc(-c2n[nH]cc2Br)c2c1C(=O)CC(C)(C)C2"
  RESULT: "> 8.89 µM"
- COMPOUND: "CNC(=O)c1cccc(NC(=O)c2cc(-c3ccco3)nc3c2cnn3C(C)C)c1"
  RESULT: "> 10 µM"
- COMPOUND: "O=C(NCc1ccc(F)c(Cl)c1)Nc1csc([N+](=O)[O-])c1"
  RESULT: "> 10 µM"
- COMPOUND: "CCOc1c(Br)cnn(-c2ccc(C)cc2)c1=O"
  RESULT: "> 10.7 µM"
- COMPOUND: "Cc1cc(NC(=O)c2ccc(C)c(C)c2)n(-c2nc3ccccc3[nH]2)n1"
  RESULT: "> 9.55 µM"
- COMPOUND: "Cc1cc(C(=O)CN2C(=O)NC(C)(C3CC3)C2=O)c(C)n1C(c1ccccc1)c1ccccc1 (stereo not given)"
  RESULT: "6.7 µM"
- COMPOUND: "C/C(=N\\NC(=O)c1ccc(OCC(=O)N2C(C)CCCC2C)cc1)c1ccc2ccccc2c1O (stereo not given)"
  RESULT: "3.9 µM"
- COMPOUND: "CCN(C(=O)c1ccccc1Br)c1nc2c(C)cccc2s1"
  RESULT: "> 10 µM"
- COMPOUND: "COC(=O)c1sccc1N/N=C(\\C#N)S(=O)(=O)c1ccc(Cl)cc1"
  RESULT: "> 8.6 µM"
- COMPOUND: "O=C(NCCO)c1cccc(-c2ccc3ncc(-c4ccc5c(c4)OCO5)n3n2)c1"
  RESULT: "3.86 µM"

###

- Tested on: Plasmodium berghei
- TEST_SUMMARY: Luciferase/luciferin-expressing antifolate-resistant parasites were used to infect a culture of HepG2 cells that were pre-incubated with compounds. Infected hepatocytes emit light due to the luciferase reaction. Assay results are presented as the percent inhibition of light emission compared to control. […]
- Type: functional
- APPLIED_CONDITIONS: sporozoite, read-out: LUCIFERASE INFECTION ASSAY - IC50
OBSERVED_PROPERTY: IC50

- MOLECULE: "O=C1C=C(SCC(=O)c2ccc([N+](=O)[O-])cc2)SC(c2ccccc2Cl)C1 (stereo not drawn)"
  RESULT: "> 7.86 µM"
- MOLECULE: "CS(=O)(=O)c1ccc(S(=O)(=O)Nc2cccc3c2CCCC3)cc1"
  RESULT: "> 10 µM"
- MOLECULE: "Cc1ccc(CSc2nnc(-c3ccccc3N)c(O)n2)cc1"
  RESULT: "> 10.2 µM"
- MOLECULE: "O=C1Nc2ccc(Br)cc2/C1=N\\N=C\\c1cc([N+](=O)[O-])ccc1OC(F)F"
  RESULT: "> 10 µM"
- MOLECULE: "CCN(CC)C(CNc1ccc([N+](=O)[O-])cn1)Cc1ccccc1 (stereo not drawn)"
  RESULT: "7 µM"
- MOLECULE: "COc1ccc(OCCN2CCN(c3ccc(S(=O)(=O)NC(C)C)cn3)CC2)cc1"
  RESULT: "> 10 µM"
- MOLECULE: "CCC(=O)c1ccc(OCC(=O)N(C)C2CCc3ccccc32)cc1 (stereo not drawn)"
  RESULT: "> 10 µM"
- MOLECULE: "CCNC(=O)N1CCc2nc(Nc3cc(C)cc(C)c3)ncc2C1"
  RESULT: "> 10.1 µM"
- MOLECULE: "Fc1cccc(F)c1/C=N/c1ccccc1N1CCOCC1"
  RESULT: "> 10 µM"
- MOLECULE: "O=[N+]([O-])c1ccc(NC2CCN(Cc3ccccc3)CC2)c2ccncc12"
  RESULT: "9.37 µM"
- MOLECULE: "O=C(CCN1CCN(C(c2ccccc2)c2ccccc2)CC1)NNC(=O)c1ccc(I)cc1"
  RESULT: "> 10 µM"
- MOLECULE: "Cc1nc(C(=O)N2CCC(C)(C(=O)NS(=O)(=O)C3CC3)C2)c(C)o1 (stereo not drawn)"
  RESULT: "> 9.28 µM"
- MOLECULE: "CC(C)(C)c1ccc(C(=O)Nc2nonc2-c2ccc(F)cc2)cc1"
  RESULT: "> 9.72 µM"

###

- System: Plasmodium berghei
- TEST_SUMMARY: Luciferase/luciferin-expressing antifolate-resistant parasites were used to infect a culture of HepG2 cells that were pre-incubated with compounds. Infected hepatocytes emit light due to the luciferase reaction. Assay results are presented as the percent inhibition of light emission compared to control. […]
- Format: functional
- APPLIED_CONDITIONS: sporozoite, read-out: LUCIFERASE INFECTION ASSAY - IC90
OBSERVED_PROPERTY: IC90

- MOLECULE: "O=C(CN1C(=O)C(=O)N(CCc2cccs2)C1=O)NC(=O)Nc1ccccc1F"
  SYSTEM_UNDER_TEST: "Plasmodium berghei"
  RESULT: "> 10 µM"
- MOLECULE: "O=C(Nc1ncc(Cc2ccccc2Br)s1)c1ccc2nc[nH]c2c1"
  SYSTEM_UNDER_TEST: "Plasmodium berghei"
  RESULT: "> 10 µM"
- MOLECULE: "Cc1cc(C(=O)OCc2c(Cl)cccc2Cl)c(C)o1"
  SYSTEM_UNDER_TEST: "Plasmodium berghei"
  RESULT: "> 10 µM"
- MOLECULE: "COC(=O)c1cc(C(=O)OC)cc(-n2c(C)cc(C(=O)Cn3ncc(Cl)c(Cl)c3=O)c2C)c1"
  SYSTEM_UNDER_TEST: "Plasmodium berghei"
  RESULT: "4.48 µM"
- MOLECULE: "Cc1ccsc1CN(C)C(C)C(=O)Nc1cc(C(F)(F)F)ccc1N1CCOCC1 (stereo unspecified)"
  SYSTEM_UNDER_TEST: "Plasmodium berghei"
  RESULT: "> 10 µM"
- MOLECULE: "c1ccc(-c2cnc3sc(NCCc4ccncc4)nn23)cc1"
  SYSTEM_UNDER_TEST: "Plasmodium berghei"
  RESULT: "> 10.3 µM"

###

- Tested on: Plasmodium berghei
- TEST_SUMMARY: Luciferase/luciferin-expressing antifolate-resistant parasites were used to infect a culture of HepG2 cells that were pre-incubated with compounds. Infected hepatocytes emit light due to the luciferase reaction. Assay results are presented as the percent inhibition of light emission compared to control. […]
- Assay type: functional
- APPLIED_CONDITIONS: sporozoite, read-out: LUCIFERASE INFECTION ASSAY - IC90

- MOLECULE: "Cc1ccc(-n2c(SCC(=O)c3ccc4c(c3)OCO4)nnc2N2CCCC2)cc1"
  IC90: "> 10 µM"
- MOLECULE: "CC(C)(C)c1cc(C(=O)/C(C#N)=N/Nc2cccc(Cl)c2)no1"
  IC90: "9.64 µM"
- MOLECULE: "CCOc1cc(C2NCC(c3ccccc3)c3c2[nH]c2ccccc32)ccc1OCC(C)C (centres undefined)"
  IC90: "> 10 µM"
- MOLECULE: "CCOc1ccc(C(=O)CCC(=O)O)cc1"
  IC90: "> 14.8 µM"
